Just for reference, ChEMBL document CHEMBL1141557 is where these values come from.

# Assay explanation: Inhibition of alpha mannosidase
Measurement kind: pIC50
Schema: pIC50 number; meaning minus log10 of the concentration expressed in molar units.

What value of pIC50 has been recorded for this entry: CCCCN1C[C@H](O)[C@@H](O)[C@H](O)[C@H]1C
2.70

* * *

# Assay explanation: Inhibition of alpha galactosidase
Measurement kind: IC50

What value of IC50 has been recorded for this entry: CCCCN1C[C@H](O)[C@@H](O)[C@H](O)[C@H]1C
234 µM

* * *

# Assay explanation: Inhibition of alpha glucosidase
Measurement kind: pIC50
Schema: pIC50 number; meaning minus log10 of the concentration expressed in molar units.

What value of pIC50 has been recorded for this entry: CCCCN1C[C@H](O)[C@@H](O)[C@H](O)[C@H]1C
4.11

* * *

# Tested on: Splenocyte
# Assay explanation: Inhibition of IFN-gamma secretion in BALB/c mouse splenocytes at 60 uM after 72 hrs by ELISA
# Assay type: functional
Listing of entries alongside the reported inhibition at 60 µM.
Phrase the answer as number then unit, nothing more needed.

CC(=O)NCCN1C[C@H](O)[C@@H](O)[C@H](O)[C@H]1C	9%

Then this molecule:
API: value(readout=inhibition at 60 µM, system=Splenocyte) for record C[C@H]1NC[C@H](O)[C@@H](O)[C@@H]1O
9%

* * *

# Test system: Splenocyte
# Assay explanation: Inhibition of IFN-gamma secretion in BALB/c mouse splenocytes at 60 uM after 72 hrs by ELISA
# Format: functional
Threshold rule: inhibition at 60 µM greater than or equal to 30% is MET; below that, NOT MET.

# count of solved cases: 5
CCCCN1C[C@H](O)[C@@H](O)[C@H](O)[C@H]1C	MET
CCCCCCCCCCN1C[C@H](O)[C@@H](O)[C@H](O)[C@H]1C	MET
COCCN1C[C@H](O)[C@@H](O)[C@H](O)[C@H]1C	NOT MET
C[C@@H]1[C@@H](O)[C@H](O)[C@@H](O)CN1CCN	MET
C[C@@H]1[C@@H](O)[C@H](O)[C@@H](O)CN1CCO	NOT MET

Now consider a different compound.
Evaluate C[C@@H]1[C@@H](O)[C@H](O)[C@@H](O)CN1C1CCCCC1 : inhibition at 60 µM at minimum 30%?
NOT MET
